# TESTED ON: Protein cereblon/Tyrosine-protein kinase BTK (Homo sapiens, UniProt Q06187+Q96SW2, C481S)
# Sequence (Q06187 2-659 C481S limits assumed, stated change not applied, one chain of several): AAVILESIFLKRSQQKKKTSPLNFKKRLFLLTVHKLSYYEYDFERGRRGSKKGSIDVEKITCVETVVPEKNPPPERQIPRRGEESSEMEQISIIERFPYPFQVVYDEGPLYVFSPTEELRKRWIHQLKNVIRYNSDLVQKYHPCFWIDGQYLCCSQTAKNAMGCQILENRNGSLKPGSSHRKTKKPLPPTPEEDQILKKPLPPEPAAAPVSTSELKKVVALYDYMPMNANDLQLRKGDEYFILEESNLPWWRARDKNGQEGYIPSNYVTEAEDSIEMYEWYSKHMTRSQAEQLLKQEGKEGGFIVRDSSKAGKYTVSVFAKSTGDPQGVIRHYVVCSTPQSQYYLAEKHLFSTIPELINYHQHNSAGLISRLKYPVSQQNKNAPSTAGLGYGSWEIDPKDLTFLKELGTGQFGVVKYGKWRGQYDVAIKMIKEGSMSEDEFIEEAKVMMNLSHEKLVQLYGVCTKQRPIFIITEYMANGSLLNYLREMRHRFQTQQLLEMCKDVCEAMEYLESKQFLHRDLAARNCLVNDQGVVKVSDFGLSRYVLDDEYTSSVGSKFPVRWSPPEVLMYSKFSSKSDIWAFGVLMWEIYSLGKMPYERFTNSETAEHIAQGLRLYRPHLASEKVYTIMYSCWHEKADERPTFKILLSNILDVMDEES
# EXPERIMENT: PROTAC activity at CRBN/BTK C481S mutant in human Ramos cells assessed as decrease in BTK C481S level incubated for 48 hrs by immunoblot analysis
# Type: cell-based

>  <COMPOUND>
Nc1ncnc2c1c(-c1ccc(Oc3ccccc3)cc1)nn2[C@@H]1CCCN(C(=O)c2cn(CCOCCOCCOCCNc3cccc4c3C(=O)N(C3CCC(=O)NC3=O)C4=O)nn2)C1 (stereo partly specified)

>  <TESTED ON>
Protein cereblon/Tyrosine-protein kinase BTK (Homo sapiens, UniProt Q06187+Q96SW2, C481S)

>  <EC50 [nM]>
30

$$$$

----------
# EXPERIMENT: Antiproliferative activity against human MINO cells assessed as reduction in cell viability incubated for 72 hrs by CellTiter Glo luminescence assay
Each entry below carries its recorded IC50.
PROPERTY NAME: IC50 (µM)

>  <TEST SMILES>
Nc1ncnc2c1c(-c1ccc(Oc3ccccc3)cc1)nn2Cc1ccccc1F

>  <NUMERIC READOUT>
11.1

$$$$
>  <TEST SMILES>
C=CC(=O)Nc1cccc(Cn2nc(-c3ccc(Oc4ccccc4)cc3)c3c(N)ncnc32)c1

>  <NUMERIC READOUT>
1.3

$$$$

----------
# EXPERIMENT: Inhibition of CDK2/Cyclin E (unknown origin) in the presence of ATP
# Set-up: species or system Homo sapiens
PROPERTY NAME: IC50 (µM)

>  <TEST SMILES>
CN1CCN(c2ccc(Nc3nc(Nc4ccc(F)c(F)c4)c4ncn(CC5CC5)c4n3)cc2)CC1

>  <UNIT DESCRIPTOR>
µM

>  <NUMERIC READOUT>
18.5

$$$$

----------
# TESTED ON: Protein cereblon/Tyrosine-protein kinase BTK (Homo sapiens, UniProt Q06187+Q96SW2)
# Sequence (Q06187 whole entry): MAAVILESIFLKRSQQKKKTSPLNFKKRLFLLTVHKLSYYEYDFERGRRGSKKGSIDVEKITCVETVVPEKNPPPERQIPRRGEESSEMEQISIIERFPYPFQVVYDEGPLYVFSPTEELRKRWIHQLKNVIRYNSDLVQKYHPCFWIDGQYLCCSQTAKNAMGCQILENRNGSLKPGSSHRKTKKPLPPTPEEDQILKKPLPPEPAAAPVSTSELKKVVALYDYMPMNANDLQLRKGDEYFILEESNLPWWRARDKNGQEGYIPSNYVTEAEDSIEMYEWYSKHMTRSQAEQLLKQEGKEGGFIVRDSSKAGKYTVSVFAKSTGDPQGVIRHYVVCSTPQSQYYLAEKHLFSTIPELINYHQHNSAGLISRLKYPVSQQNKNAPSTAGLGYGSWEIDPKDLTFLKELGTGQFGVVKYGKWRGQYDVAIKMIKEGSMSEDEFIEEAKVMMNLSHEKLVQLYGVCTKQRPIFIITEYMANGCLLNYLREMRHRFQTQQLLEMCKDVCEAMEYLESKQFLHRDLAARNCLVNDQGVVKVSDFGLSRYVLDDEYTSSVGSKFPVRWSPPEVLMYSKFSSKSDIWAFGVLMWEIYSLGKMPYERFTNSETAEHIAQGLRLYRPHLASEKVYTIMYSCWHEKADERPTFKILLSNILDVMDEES
# Sequence (Q96SW2 whole entry): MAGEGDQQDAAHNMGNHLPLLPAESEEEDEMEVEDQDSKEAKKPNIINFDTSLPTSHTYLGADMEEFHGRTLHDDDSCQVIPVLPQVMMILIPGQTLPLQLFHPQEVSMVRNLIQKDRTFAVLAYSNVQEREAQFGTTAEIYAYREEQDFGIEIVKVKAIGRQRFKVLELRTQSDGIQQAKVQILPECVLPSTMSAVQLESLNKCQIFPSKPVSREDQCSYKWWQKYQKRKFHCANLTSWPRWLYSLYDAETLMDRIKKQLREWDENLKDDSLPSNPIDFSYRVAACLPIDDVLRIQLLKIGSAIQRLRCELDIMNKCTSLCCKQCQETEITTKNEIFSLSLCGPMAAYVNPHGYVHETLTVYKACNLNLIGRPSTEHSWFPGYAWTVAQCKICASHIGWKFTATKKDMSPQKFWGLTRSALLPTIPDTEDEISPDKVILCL
# EXPERIMENT: PROTAC activity at CRBN/BTK in human MINO cells assessed as decrease in BTK level incubated for 24 hrs by Western blot analysis
# Assay type: cell-based
PROPERTY NAME: EC50 (nM)

>  <MOLECULE>
Nc1ncnc2c1c(-c1ccc(Oc3ccccc3)cc1)nn2C1CCCN(C(=O)CCCCCCCOCCOCCOCCOCCOc2cccc3c2C(=O)N(C2CCC(=O)NC2=O)C3=O)C1 (stereo not drawn)

>  <PROPERTY NAME>
EC50

>  <UNIT DESCRIPTOR>
nM

>  <NUMERIC READOUT>
2.2

$$$$
>  <MOLECULE>
Nc1ncnc2c1c(-c1ccc(Oc3ccccc3)cc1)nn2C1CCCN(C(=O)/C=C/CCCCCOCCOCCOCCOCCOc2cccc3c2C(=O)N(C2CCC(=O)NC2=O)C3=O)C1 (stereo not drawn)

>  <PROPERTY NAME>
EC50

>  <UNIT DESCRIPTOR>
nM

>  <NUMERIC READOUT>
10

$$$$
>  <MOLECULE>
C#C/C(=C\C(C)(C)CCCCOCCOCCOCCOCCOc1cccc2c1C(=O)N(C1CCC(=O)NC1=O)C2=O)C(=O)N1CCCC(n2nc(-c3ccc(Oc4ccccc4)cc3)c3c(N)ncnc32)C1 (stereo not drawn)

>  <PROPERTY NAME>
EC50

>  <UNIT DESCRIPTOR>
nM

>  <NUMERIC READOUT>
10

$$$$
